Measured pIC50 Category (FACS) by item
# TARGET_ENTITY: T1, human fibroblast activation protein (FAP) on WI-38 fibroblasts (human, UniProt Q12884 1-760)
# T1 construct: FAP-expressing human WI-38 fibroblasts (ECACC)
# MEASUREMENT_PROTOCOL: competitive FACS, WI-38 cells, Cy5-labeled peptide as competitor
Numbered stars: 1 amine (or outer) side, 2 acyl side, 3 side chain; on linkers, the order of the positions; unused ones are H or OH. Bridge positions count the residues as written; N and C are the ends. Square brackets hold non-standard residues; d marks the D form. * marks the point of attachment. TBMB(SCH2CH2NH-DOTA) = O=C(O)CN1CCN(CC(=O)O)CCN(CC(=O)NCCSCc2cc(C[*:1])cc(C[*:2])c2)CCN(CC(=O)O)CC1; nBu‑CAyl = n-butylaminocarbonyl, CCCCNC(=O)*; Pentanesulfonyl = CCCCCS(=O)(=O)*; Sar = CNCC(=O)O

{nBu‑CAyl}-C[Sar]PTQFC-NH2 (linker 1-7 via TBMB(SCH2CH2NH-DOTA); SMILES CCCCNC(=O)N[C@H]1CSCc2cc(CSCCNC(=O)CN3CCN(CC(=O)O)CCN(CC(=O)O)CCN(CC(=O)O)CC3)cc(c2)CSC[C@@H](C(N)=O)NC(=O)[C@H](Cc2ccccc2)NC(=O)[C@H](CCC(N)=O)NC(=O)[C@H]([C@@H](C)O)NC(=O)[C@@H]2CCCN2C(=O)CN(C)C1=O, also called 3BP-4621) [nBu-CAyl-[Cys(tMeBn(DOTA-AET))-Nmg-Pro-Thr-Gln-Phe-Cys]-NH2] | > 8 pIC50
{nBu‑CAyl}-C[Sar]PTQFC-OH (linker 1-7 via TBMB(SCH2CH2NH-DOTA); SMILES CCCCNC(=O)N[C@H]1CSCc2cc(CSCCNC(=O)CN3CCN(CC(=O)O)CCN(CC(=O)O)CCN(CC(=O)O)CC3)cc(c2)CSC[C@@H](C(=O)O)NC(=O)[C@H](Cc2ccccc2)NC(=O)[C@H](CCC(N)=O)NC(=O)[C@H]([C@@H](C)O)NC(=O)[C@@H]2CCCN2C(=O)CN(C)C1=O, also called 3BP-4607) [nBu-CAyl-[Cys(tMeBn(DOTA-AET))-Nmg-Pro-Thr-Gln-Phe-Cys]-OH] | > 8 pIC50

# lookup: pIC50 Category (FACS) of Pentanesulfonyl-CPPTQFCD-NH2 (linker 1-7 via tMeBn(InDOTA-PP); also: In complex of DOTA (InDOTA), also called 3BP-3717) [Pentyl-SO2-[Cys(tMeBn(InDOTA-PP))-Pro-Pro-Thr-Gln-Phe-Cys]-Asp-NH2]
> 8 pIC50

These data points were gathered from patent US20230212549A1.
